// reported self-splicing fitness (ln) for each item listed
experiment: self-splicing fitness, log relative to wild type (ln ratio); higher = more splicing; Tetrahymena group I intron in knt gene, E. coli kanamycin selection, DiMSum; sequences stand for … in CUCUCU…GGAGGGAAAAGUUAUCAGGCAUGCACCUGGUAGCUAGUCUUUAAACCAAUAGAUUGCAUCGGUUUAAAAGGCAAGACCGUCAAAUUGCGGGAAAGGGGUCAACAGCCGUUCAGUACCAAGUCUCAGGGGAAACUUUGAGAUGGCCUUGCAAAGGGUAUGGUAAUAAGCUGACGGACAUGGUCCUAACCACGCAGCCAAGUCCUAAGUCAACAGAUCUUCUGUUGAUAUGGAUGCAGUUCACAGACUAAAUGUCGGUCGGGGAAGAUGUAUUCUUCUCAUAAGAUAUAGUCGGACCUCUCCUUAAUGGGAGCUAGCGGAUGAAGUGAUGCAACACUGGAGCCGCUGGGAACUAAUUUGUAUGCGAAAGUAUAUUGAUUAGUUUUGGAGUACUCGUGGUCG; conditions: 30 °C;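 further: selection with 25 µg/mL kanamycin versus none on LB agar overnight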

The examples below pair each entry with its known result.
UGGCAGCAAUAUUACGGGAG = -3.13
UCAAAGCAAUAUUACGCCAU = -3.37
CACAAGCAAUAUUACGUCGC = -3.09
AGUAAGCAAUAUUACGUACG = -1.51
UAUGAGCAAUAUUACGCUAU = -1.38

Exercise: Consider the sequence shown here: `UAAGAGCAAUAUUACGGGCC` What is its recorded self-splicing fitness (ln)?
Key: -2.08

Exercise: Param item = `GCCCAGCAAUAUUACGUGAU` ; retrieve measured self-splicing fitness (ln).
Key: -0.455

Exercise: May I ask what self-splicing fitness (ln) has been recorded for `UCGAAGCAAUAUUACGAUAA` ?
Key: -2.17
